The reported measurements were obtained from patent US20240301031A1.

# System name: T1, human BAFF (10056-HNCH, Sino biological) (human, UniProt Q9Y275 134-285)
# T1 construct: Bought protein
# Test name: competition ELISA: biotin-labeled BAFF to coated BAFF-R
pIC50: −log10 of the molar value.
The entries below come with measured pIC50 values attached.

Binder	pIC50
TACI-7 Fc (Fc fusion, two identical polypeptides) FPQGLWTGVAMRSCPEEQYWDPLLGTCMSCKTICNHQSQRTCAAFCRSLSCRKEQGKFYDHLLRDCISCASICGQHPKQCAYFCENKLRSPVNLPPDKTHTCPPCPAPEAEGAPSVFLFPPKPKDTLMISRTPEVTCVVVDVSHEDPEVKFNWYVDGVEVHNAKTKPREEQYNSTYRVVSVLTVLHQDWLNGKEYKCKVSNKALPSSIEKTISKAKGQPREPQVYTLPPSRDELTKNQVSLTCLVKGFYPSDIAVEWESNGQPENNYKTTPPVLDSDGSFFLYSKLTVDKSRWQQGNVFSCSVMHEALHNHYTQKSLSLSPGK	7.56
TACI-3 Fc (Fc fusion, two identical polypeptides) SGLGRSRKGGKSRVDQEERFPQGLWTGVAMRSCPEEQYWDPLLGTCMSCKTICNHQSQRTCAAFCRSLSCRKEQGKFYDHLLRDCISCASICGQHPKQCAYFCENKLRSPVNLPPELRKQRSGEVEDKTHTCPPCPAPEAEGAPSVFLFPPKPKDTLMISRTPEVTCVVVDVSHEDPEVKFNWYVDGVEVHNAKTKPREEQYNSTYRVVSVLTVLHQDWLNGKEYKCKVSNKALPSSIEKTISKAKGQPREPQVYTLPPSRDELTKNQVSLTCLVKGFYPSDIAVEWESNGQPENNYKTTPPVLDSDGSFFLYSKLTVDKSRWQQGNVFSCSVMHEALHNHYTQKSLSLSPGK	6.08
TACI-2 Fc (Fc fusion, two identical polypeptides) SGLGRSRKGGKSRVDQEERFPQGLWTGVAMRSCPEEQYWDPLLGTCMSCKTICNHQSQRTCAAFCRSLSCRKEQGKFYDHLLRDCISCASICGQHPKQCAYFCENKLRSPVNLPPELRKQRSGEVENNSDNSGDKTHTCPPCPAPEAEGAPSVFLFPPKPKDTLMISRTPEVTCVVVDVSHEDPEVKFNWYVDGVEVHNAKTKPREEQYNSTYRVVSVLTVLHQDWLNGKEYKCKVSNKALPSSIEKTISKAKGQPREPQVYTLPPSRDELTKNQVSLTCLVKGFYPSDIAVEWESNGQPENNYKTTPPVLDSDGSFFLYSKLTVDKSRWQQGNVFSCSVMHEALHNHYTQKSLSLSPGK	7.37
TACI-19Fc (Fc fusion, Fused directly to Fc; two identical polypeptides) RKEQGKFYDHLLRDCISCASICGQHPKQCAYFCEDKTHTCPPCPAPEAEGAPSVFLFPPKPKDTLMISRTPEVTCVVVDVSHEDPEVKFNWYVDGVEVHNAKTKPREEQYNSTYRVVSVLTVLHQDWLNGKEYKCKVSNKALPSSIEKTISKAKGQPREPQVYTLPPSRDELTKNQVSLTCLVKGFYPSDIAVEWESNGQPENNYKTTPPVLDSDGSFFLYSKLTVDKSRWQQGNVFSCSVMHEALHNHYTQKSLSLSPGK	5.65
